Origin of measurements: patent US20130324522A1

Biological target: OR8/OR7 (Anopheles gambiae, UniProt Q7PUT5+Q7QCC7)
Sequence (Q7QCC7 whole entry): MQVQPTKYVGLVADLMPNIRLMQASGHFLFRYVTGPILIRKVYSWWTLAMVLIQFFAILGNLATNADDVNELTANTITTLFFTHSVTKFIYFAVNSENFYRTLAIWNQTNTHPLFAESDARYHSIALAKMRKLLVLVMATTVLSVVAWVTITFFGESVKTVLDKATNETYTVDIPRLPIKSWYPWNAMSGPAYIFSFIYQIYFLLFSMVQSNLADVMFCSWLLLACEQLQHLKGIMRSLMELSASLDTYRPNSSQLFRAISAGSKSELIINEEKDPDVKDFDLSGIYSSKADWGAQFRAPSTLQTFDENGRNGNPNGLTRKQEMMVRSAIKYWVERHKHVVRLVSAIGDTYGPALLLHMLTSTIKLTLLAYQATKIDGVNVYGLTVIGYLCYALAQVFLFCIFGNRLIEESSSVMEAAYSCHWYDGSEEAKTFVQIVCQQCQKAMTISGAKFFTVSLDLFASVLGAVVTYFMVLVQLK
Sequence (Q7PUT5 entry or part of it): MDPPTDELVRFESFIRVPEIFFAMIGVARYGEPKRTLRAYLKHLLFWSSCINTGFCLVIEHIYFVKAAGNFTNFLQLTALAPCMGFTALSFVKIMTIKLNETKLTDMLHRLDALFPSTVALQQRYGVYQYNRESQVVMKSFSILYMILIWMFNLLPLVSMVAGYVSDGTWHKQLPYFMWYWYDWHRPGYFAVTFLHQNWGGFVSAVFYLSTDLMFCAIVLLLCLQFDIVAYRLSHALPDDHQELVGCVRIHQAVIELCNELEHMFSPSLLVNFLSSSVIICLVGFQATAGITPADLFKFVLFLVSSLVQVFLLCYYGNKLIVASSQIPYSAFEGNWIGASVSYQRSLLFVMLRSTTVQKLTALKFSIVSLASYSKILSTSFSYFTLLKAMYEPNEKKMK
Assay: Ca2+-imaging of stable HEK293T cell line OR8/OR7
Type: cell-based
Conditions: ligand 1-octen-3-ol 30 μM; read-out: IC50 OR8 OR7
I'd appreciate it if you could supply IC50 values for the items below.

## Task Fill in: IC50 of CCN(CC)C(=O)c1cccc(C)c1 [DEET, N,N-diethyl-m-toluamide, reference compound] is ___
## Result > 50 µM

## Task Here is the next molecule: C=CCN(Cc1nccn1Cc1cccc(F)c1)C(=O)c1ccccc1F [RU-I1]
## Result 20 to 50 µM

## Task Then this molecule: O=C(c1nccn1Cc1c(F)cccc1Cl)N(CC1CCCC1)C1CC1 [RU-I3]
## Result < 2 µM

## Task Another molecule: CN(Cc1nccn1Cc1c(F)cccc1Cl)C(=O)C1CCCC1 [RU-I5]
## Result 2 to 20 µM

## Task And Fc1cccc(Cl)c1Cn1ccnc1CN(CC1CCCC1)C1CC1 [RU-I4] ?
## Result > 220 µM

## Task # iterate: O=C(C1CCCC1)N(Cc1nccn1CCc1c(F)cccc1Cl)C1CC1 [RU-I2]
## Result 2 to 20 µM
